# measurement_target: hH3R (Homo sapiens, UniProt Q9Y5N1)
# Sequence (Q9Y5N1 whole entry): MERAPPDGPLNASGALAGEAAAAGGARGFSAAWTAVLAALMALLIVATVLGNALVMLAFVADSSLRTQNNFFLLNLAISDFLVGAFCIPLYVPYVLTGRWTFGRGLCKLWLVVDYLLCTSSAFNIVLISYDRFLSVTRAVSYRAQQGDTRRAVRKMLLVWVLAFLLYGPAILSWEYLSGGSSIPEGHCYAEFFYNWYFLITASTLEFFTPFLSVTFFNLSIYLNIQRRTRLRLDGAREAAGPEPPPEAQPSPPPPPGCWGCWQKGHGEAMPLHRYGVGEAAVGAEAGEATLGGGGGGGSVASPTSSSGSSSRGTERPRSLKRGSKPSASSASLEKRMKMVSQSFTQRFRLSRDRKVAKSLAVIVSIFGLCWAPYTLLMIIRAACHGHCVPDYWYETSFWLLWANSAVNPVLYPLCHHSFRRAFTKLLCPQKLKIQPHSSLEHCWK
# assay_notes: [35S]GTPγS binding assay, Sf9 cell membranes
# Format: biochemical
measurement_kind: Kb (µM)

# line_notation, assay_value
data = [
    ("N=C(NCCCCCCCCNC(=N)NCCCc1cnc(N)s1)NCCCc1c[nH]cn1", 0.0813),
    ("Cc1nc(N)sc1CCCNC(=N)NCCCCCCCCNC(=N)NCCCc1c[nH]cn1", 0.0661),
    ("Cc1nc(N)sc1CCCNC(=N)NCCCCCCCCNC(=N)NCCCc1cnc(N)s1", 21.4),
    ("CCCCCCCCCCCCNC(=N)NCCCc1sc(N)nc1C", 4.27),
]

(P) N=C(NCCCCCCCCCCCCNC(=N)NCCCc1c[nH]cn1)NCCCc1c[nH]cn1
(Q) N=C(NCCCCCCCCNC(=N)NCCCc1cnc(N)s1)NCCCc1cnc(N)s1
(R) N=C(NCCCCCCCCNC(=N)NCCCc1c[nH]cn1)NCCCc1c[nH]cn1
Rank ascending by Kb. Returns: the labels listed in the requested order.
P, R, Q

The measurements presented in this section are drawn from paper PMC6130797.
